Molecular target: T1, APBA1_2, Q02410
T1 sequence (Q02410 742-832, limits assumed, looked up): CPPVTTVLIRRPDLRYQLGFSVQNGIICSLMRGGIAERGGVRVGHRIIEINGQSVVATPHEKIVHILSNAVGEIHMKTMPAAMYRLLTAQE
Experiment: holdup assay
Design: key: below the threshold = too weak to quantify, mostly under pKd 3.1 to 4
Settings: plain residues with an end cap or a label only (N-terminal biotin on a linker: ado-ado)
experimental-endpoint: pKd

Below, each entry is followed by its recorded pKd result.
## Task Specify reported pKd for the binder shown: DTTVPESEDL [MYOZ2, Q9NPC6]
## Result below the threshold

## Task Name the recorded pKd of the item LPHPHSTTRV [NLGN2, Q8NFZ4] in your answer.
## Result below the threshold

## Task Entry EKKTLIGIKL [GOT1L1, Q8NHS2] needs its pKd filled in; supply it.
## Result below the threshold

## Task Answer with the recorded pKd for the binder listed here: NLSIEKETKL [ASNSD1, Q9NWL6]
## Result below the threshold

## Task Give reported pKd value for LPAHHNATRL [SLC34A1, Q06495;Q06495-1]
## Result 4

Others:
## Task Name the recorded pKd of the binder listed here: SAKVRTVTSV [RASL11B, Q9BPW5]
## Result 3.92

## Task Fill in reported pKd for this entry: IPLDGETEEL [MYOZ1, Q9NP98]
## Result below the threshold

## Task Provide one value: measured pKd of SKSNFGSEPL [KIF17, Q9P2E2]
## Result below the threshold

## Task State its pKd for this binder: YNNCLEILRV [DCAF7, P61962]
## Result below the threshold

## Task Hello, please tell me recorded pKd for this one: TPPAAKKSRI [BAZ1A, Q9NRL2]
## Result below the threshold

## Task Fill in pKd for record TASPAKETSF [SLC2A7, Q6PXP3]
## Result below the threshold

// data source = paper PMC9482650
